# Target Under Test: PTPN3, P26045
# Sequence (P26045 505-587): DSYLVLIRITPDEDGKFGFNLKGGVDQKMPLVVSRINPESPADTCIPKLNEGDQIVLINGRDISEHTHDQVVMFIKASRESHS
# Procedure Details: holdup assay
# Design: key: below the threshold = too weak to quantify, mostly under pKd 3.1 to 4
# Assay Setup: plain residues with an end cap or a label only (N-terminal biotin on a linker: ado-ado)
Would you kindly list pKd for each of these binders?
Give bare numbers.

Here is how some binders turned out for pKd.
Query :: Specify measured pKd for VNKSKLLTDV [KCNA1, Q09470] .
Result :: 3.65

Query :: Report measured pKd; entry is SNAGNTATKA [NOSTRIN, Q8IVI9]
Result :: 3.87

Query :: Output pKd of YLEPVLSSEL [ATP2A2, P16615;P16615-3]
Result :: 4.93

Query :: Hello, please tell me recorded pKd for this one: IKAIVDLTGL [TRAF2, Q12933]
Result :: 3.91

Query :: Look up and report measured pKd for this entry: QHKTQLQTLI [BPIFA2, Q96DR5]
Result :: 3.99

Query :: Determine its reported pKd: RHGSCVETSL [TMEM151B, Q8IW70]
Result :: 5

Query :: Check the records and state pKd for RRRESYSTTV [EVI5, O60447]
Result :: 4.31

Please look at the following binder next.
Query :: Identify the reported pKd for the following entry. PRISRSQSEL [CCDC134, Q9H6E4]
Result :: 4.22
